tested on: HL-60(TB) leukemia; assay: NCI tumour cell line growth inhibition, 48 h
Where a SMILES comes first, the peptide text is derived from it. [ ]: non-standard residue; d: D form.
Readout Label: TGI

Look over these answered cases.
* CCOC(=O)CCC(NC(=O)c1ccc(Nc2nc3ccccc3nc2C(=O)OCC)s1)C(=O)OCC (stereo not drawn) | > 100 µM
* CSc1nc(-c2ccccc2)nc(=[N+]2CCOCC2)s1 | > 100 µM
* CSCC[C@H](NC(=O)[C@@H](N)CC(N)=O)C(=O)N[C@@H](Cc1c[nH]c2ccccc12)C(=O)N[C@@H](CCC(N)=O)C(=O)N[C@@H](CCC(=O)O)C(=O)N[C@H](C(=O)NCC(=O)N[C@@H](CCCCN)C(=O)N[C@H](C)C(=O)O)C(C)C (H-NMWQEVGK[dA]-OH) | > 100 µM
* COc1ccc(C2C3=C(COC3=O)N(CCO)c3cc4c(cc32)CCC4)cc1 (stereo not drawn) | 3.98 µM
* Cn1c(-c2c(C3=CC(=O)N(c4ccccc4)C3=O)c3ccccc3n2C)cc2ccccc21 | > 100 µM

Form: compound = "O=S(=O)(O)c1cc(N=[N+]([O-])c2ccc(N=Nc3ccccc3)cc2S(=O)(=O)O)ccc1/C=C/c1ccc(N=[N+]([O-])c2ccc(N=Nc3ccccc3)cc2S(=O)(=O)O)cc1S(=O)(=O)O" ; TGI = > 100 µM

Form: compound = Fc1ccc2c(c1)nc1n2C(c2c(F)cccc2F)SC1 (stereo not drawn) ; TGI = 70 µM

Form: compound = CNC(=O)C1OC(n2cnc3c(NCc4cccc(I)c4)nc(Cl)nc32)C(O)C1O (stereo not drawn) ; TGI = > 100 µM

---

test system: CAKI-1 renal; test: NCI tumour cell line growth inhibition, 48 h
Readout Label: TGI

* Fc1ccc2c(c1)nc1n2C(c2c(F)cccc2F)SC1 (stereo not given) | > 100 µM
* O=C(CCc1cc(-c2ccc(F)cc2)n[nH]1)N(Cc1ccccc1)Cc1ccccc1 | > 100 µM
* Cc1ccc(C)c(NC(=O)C(=O)Nn2c(=S)[nH]c3ccccc3c2=O)c1 | > 100 µM
* CS(=O)(=O)CCNCc1ccoc1-c1ccc2ncnc(Nc3ccc(OCc4ccccc4)cc3)c2c1 | > 25 µM

Form: compound = CCOC(=O)CC(C)C1(C=O)CCCCC1=O (stereo not given) ; TGI = > 100 µM

---

tested on: LOX IMVI melanoma; experiment: NCI tumour cell line growth inhibition, 48 h; in the data active = GI50 below about 0.43 µM; inactive = the rest
Answer with one of the outcomes yes (1) = active, no (0) = inactive

- Cc1nc2sc(C(=O)Nc3ccccc3)c(N)c2cc1C(=O)c1ccccc1: no (0)
- C[C@@H](C[C@H](CCO)c1ccccc1)c1ccc2ccccc2c1: no (0)
- CCSc1nc(N)c2cnn(CC)c2n1: no (0)
- CSc1nc2ccc(C)cc2cc1/C=C1/C=C(c2ccccc2)NC1=O: no (0)

Problem: Hey, what did the test say about "CNc1nc(-c2ccc3c(N)n[nH]c3c2)cc(N2C[C@@H](C(=O)NC3CCCCC3)CC[C@H]2C)n1" ?
Result: no (0)

Problem: Hey, what did the test say about "COC(=O)[C@@H](C)C[C@H](Cc1ccccc1)NC(=O)c1csc([C@@H](C[C@H](C(C)C)N(C)C(=O)[C@@H](NC(=O)[C@H]2CCCCN2C)C(C(F)(F)F)C(F)(F)F)OC(C)=O)n1" ?
Result: yes (1)

Problem: Hey, what did the test say about "O=C(/C=C/c1ccc(Cl)cc1Cl)c1ccc(Cl)cc1Cl" ?
Result: no (0)

Problem: Hey, what did the test say about "c1ccc(-c2cc3n4c(-c5ccccc5)nn(-c5ccccc5)c4cnc-3n2)cc1" ?
Result: no (0)

Problem: Hey, what did the test say about "O=S(=O)(Nc1ccc(Cl)c(Cl)c1)c1ccc(-c2cnc(C3CC3)o2)cc1" ?
Result: no (0)

---

system: SN12C renal; experiment: NCI tumour cell line growth inhibition, 48 h
Readout Label: TGI

Look over these answered cases.
* CCOC(=O)C1CCCN1C(=O)c1ccccc1Cl (configuration not stated) | > 100 µM
* O=C1CC2OCC=C3CN4CCC5(C(=O)O)C(N1)C2C3CC45 (configuration not stated) | > 100 µM
* Nc1ccc(C(=O)O)cc1 | > 100 µM
* COc1ccc(/C=C(/c2ccc(OC)cc2)c2c(Cl)cc(Cl)c(/C(=C\c3ccc(OC)cc3)c3ccc(OC)cc3)c2N=Nc2ccccc2)cc1 | > 100 µM
* CC(=O)[O][Hg][c]1s[c]([Hg][O]C(C)=O)[c]([Hg][O]C(C)=O)[c]1[Hg][O]C(C)=O | > 100 µM
* CC1=C(SCCC(=O)OC(C[Se]C2=C(C)C(=O)c3ccccc3C2=O)C(=O)NC(C)(C)C)C(=O)c2ccccc2C1=O (configuration not stated) | 2.99 µM

As a next step, examine the molecule that follows.
Form: molecule = "COC(=O)[C@@H](C)C[C@H](Cc1ccccc1)NC(=O)c1csc([C@@H](C[C@H](C(C)C)N(C)C(=O)[C@@H](NC(=O)[C@H]2CCCCN2C)C(C(F)(F)F)C(F)(F)F)OC(C)=O)n1" ; TGI = > 16.7 µM

---

tested on: SR leukemia; test: NCI tumour cell line growth inhibition, 48 h
Kindly return yes (1) if reported TGI is no lower than 20 µM; return no (0) if it is lower.

Problem: In plain terms: is recorded TGI at least 20 µM for COc1ccc2c(c1)C=CC1C2CC[C@]2(C)C(NC(=O)/C=C/c3ccc(O)c(O)c3)CCC12 (some centres undefined) ?
Result: no (0)

Problem: In plain terms: is recorded TGI at least 20 µM for "CN(C)CCOc1ccc2c(c1)C(=O)/C(=C\c1ncc([N+](=O)[O-])n1C)C2" ?
Result: no (0)

Problem: In plain terms: is recorded TGI at least 20 µM for "C#C[C@@H](CCCC)OC(=O)N[C@H](C)c1ccccc1" ?
Result: yes (1)

Problem: In plain terms: is recorded TGI at least 20 µM for Cc1ccc(S(=O)(=O)NC(=O)NC(CC(=O)O)C(=O)O)cc1 (centres undefined) ?
Result: yes (1)

Problem: In plain terms: is recorded TGI at least 20 µM for "CCSc1nc(N)c2cnn(CC)c2n1" ?
Result: yes (1)

Problem: In plain terms: is recorded TGI at least 20 µM for "COC(=O)/C=C\C(C#N)(C#N)N=Cc1ccc(Br)cc1" ?
Result: yes (1)

Problem: In plain terms: is recorded TGI at least 20 µM for "C[C@H]1CC[C@@H]2[C@@H](C)[C@H]3[C@H](C[C@H]4[C@@H]5CC=C6C[C@@H](O)CC[C@]6(C)[C@H]5CC[C@]34C)N2C1" ?
Result: yes (1)

---

test system: NCI-H522 lung; assay: NCI tumour cell line growth inhibition, 48 h; in the data active = GI50 below about 0.43 µM; inactive = the rest
Answer with one of the outcomes active, inactive

* C1CC[N-]CC1.CC(=N\O)/C(C)=N/O.CC(=N\O)/C(C)=N/O.C[CH-]C(C)O.[Co+2] | inactive
* C=Cc1cc(OC)c2c(c1)c(=O)oc1c2cc(OC)c2c(O)ccc(C3OC(C(C)O)C(O)C3O)c21 (stereo unspecified) | active
* CSc1nc2ccc(C)cc2cc1/C=C1/C=C(c2ccccc2)NC1=O | inactive

Problem: Hey, what did the test say about "C=C(CN1CCN(c2ccc(F)c(Cl)c2)CC1)c1ccc(C(=O)Nc2ccccc2N)cc1" ?
Result: inactive

Problem: Hey, what did the test say about "CNC(=O)c1cc(-c2ccc(F)cc2)cc(-c2ccc(S(=O)(=O)N3CCCC3)cc2)c1N" ?
Result: inactive

Problem: Hey, what did the test say about "COC(=O)[C@@H](C)C[C@H](Cc1ccccc1)NC(=O)c1csc([C@@H](C[C@H](C(C)C)N(C)C(=O)[C@@H](NC(=O)[C@H]2CCCCN2C)C(C(F)(F)F)C(F)(F)F)OC(C)=O)n1" ?
Result: active

Problem: Hey, what did the test say about "CCCCCCCCc1cc(O)ccc1O" ?
Result: inactive

Problem: Hey, what did the test say about "CC[C@@H](C(=O)[C@@H](C)[C@@H](O)[C@H](C)[C@@H]1O[C@@H]([C@@H](CC)C(=O)O)CC[C@@H]1C)[C@H]1O[C@]2(C=C[C@@H](O)[C@]3(CC[C@@](C)([C@H]4CC[C@](O)(CC)[C@H](C)O4)O3)O2)[C@H](C)C[C@@H]1C" ?
Result: active

---

system: OVCAR-5 ovarian; experiment: NCI tumour cell line growth inhibition, 48 h
The following compounds are shown together with reported TGI values.

• N#Cc1c(N2CCCC2)nsc1Nc1ccccc1 = > 100 µM
• Cn1cccc1-c1cc(-c2ccccc2)nc(N)c1C#N = > 100 µM
• COc1ccc(C2=NN(c3nsc4ccccc34)C(=O)CC2)cc1 = > 100 µM
• Cc1nc(-n2nc(-c3ccccc3)cc2-c2ccccc2)sc1C(=O)CC(=O)C(=O)Nc1ccc(O)cc1 = > 100 µM
• O=C(CCc1cc(-c2ccc(F)cc2)n[nH]1)N(Cc1ccccc1)Cc1ccccc1 = > 100 µM
• Cc1cc(S(=O)(=O)Nc2n[nH]c(Nc3ccccc3)n2)c(SSc2cc(Cl)c(C)cc2S(=O)(=O)Nc2n[nH]c(Nc3ccccc3)n2)cc1Cl = > 100 µM

Form: compound = "O=S(=O)(Nc1ccc(Cl)c(Cl)c1)c1ccc(-c2cnc(C3CC3)o2)cc1" ; TGI = 17.3 µM

Form: compound = "CN1C/C(=C\c2cccs2)C(=O)/C(=C/c2cccs2)C1" ; TGI = 66.8 µM

Form: compound = Nc1ccn(C2CC3OCC3O2)c(=O)n1 (stereo not given) ; TGI = > 100 µM

Form: compound = "NS(=O)(=O)c1ccc(NCc2nc3ccccc3[nH]2)cc1" ; TGI = > 100 µM
